- Assayed System: hGLP-1R (Homo sapiens, UniProt P43220)
- Sequence (P43220 24-463): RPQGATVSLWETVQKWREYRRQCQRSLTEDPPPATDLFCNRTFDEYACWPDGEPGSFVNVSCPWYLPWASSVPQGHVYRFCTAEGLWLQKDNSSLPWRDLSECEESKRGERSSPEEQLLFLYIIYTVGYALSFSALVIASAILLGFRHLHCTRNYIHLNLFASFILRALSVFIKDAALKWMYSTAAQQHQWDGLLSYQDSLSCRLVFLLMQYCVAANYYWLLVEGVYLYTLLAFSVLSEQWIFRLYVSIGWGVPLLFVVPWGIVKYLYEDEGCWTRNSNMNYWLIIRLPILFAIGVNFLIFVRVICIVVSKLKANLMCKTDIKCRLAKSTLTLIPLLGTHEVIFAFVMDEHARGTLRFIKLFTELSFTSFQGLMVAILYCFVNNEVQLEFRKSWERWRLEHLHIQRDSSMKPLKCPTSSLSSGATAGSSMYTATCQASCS
- Protocol Description: cell-based or functional assay
Non-standard residues stand in square brackets, D forms with d. No end group written: not given here. αMeL = CC(C)C[C@](C)(N)C(=O)O; Aib = CC(C)(N)C(=O)O
Measured Endpoint: Relative cAMP EC50 (nM)
Answers are plain numbers, in nM.

{"Binder": "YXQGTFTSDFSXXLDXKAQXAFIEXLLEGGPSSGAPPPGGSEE (non-natural residues; Lys acylated C18 diacid via γGlu2; C-term amide; synthetic construct; SITE 2: note = 2-Aminoisobutyric Acid; SITE 12: note = L-ornithine; SITE 13: note = alpha-methyl-leucine; SITE 16: note = L-ornithine; SITE 17: note = Lysine is chemically modified through conjugation of the epsilon-amino group of the Lysine side chain with (gamma-Glu)2-CO-(CH2)) [Example 1050]", "Relative cAMP EC50 (nM)": 7.65}
{"Binder": "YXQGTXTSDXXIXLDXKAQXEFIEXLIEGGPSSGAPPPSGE (non-natural residues; acylated Lys C18 diacid; C-term amide; synthetic construct; SITE 2: note = 2-Aminoisobutyric Acid; SITE 6: note = alpha-methyl-L-phenylalanine; SITE 10: note = 3-(4-Pyridyl)-L-alanine; SITE 11: note = alpha-methyl-L-serine; SITE 13: note = alpha-methyl-leucine; SITE 16: note = L-ornithine; SITE 17: note = Lysine is chemically modified th) [Example 1164]", "Relative cAMP EC50 (nM)": 0.495}
{"Binder": "Y[Aib]QGTFTSDYSK[αMeL]LDKKAQQAFIEYLLAGGPSSGEPPPSGE-NH2 (not fully specified (residue 17)) [Example 344]", "Relative cAMP EC50 (nM)": 2.56}
{"Binder": "YXQGTFTSDXSQXLDKKAQXAFIEYLIAGGPSSGEPPPSGS (synthetic construct; SITE 2: note = 2-Aminoisobutyric Acid; SITE 10: note = 3-(4-Pyridyl)-L-alanine; SITE 13: note = alpha-methyl-leucine; SITE 17: note = Lysine is chemically modified through conjugation of the epsilon-amino group of the Lysine side chain with (gamma-Glu)2-CO-(CH2)16-CO2H; SITE 20:) [Example 968]", "Relative cAMP EC50 (nM)": 1.04}
{"Binder": "YXQGTFTSDXSQXLDKKAQXAFIEXLIEXGPSSGAPPPSGTGE (non-natural residues; Lys acylated AEEA-γGlu-C18 diacid; C-terminal amide; synthetic construct; SITE 2: note = 2-Aminoisobutyric Acid; SITE 10: note = 3-(4-Pyridyl)-L-alanine; SITE 13: note = alpha-methyl-leucine; SITE 17: note = Lysine is chemically modified through conjugation of the epsilon-amino group of the Lysine side chain with (2-[2-(2-Amino-ethoxy)-ethoxy]-acetyl)) [Example 1117]", "Relative cAMP EC50 (nM)": 3.51}
{"Binder": "YXQGTXTSDYXIXLDXKAQXAFIEYLLEGGPSSGEPPPE (synthetic construct; SITE 2: note = 2-Aminoisobutyric Acid; SITE 6: note = alpha-methyl-L-phenylalanine; SITE 11: note = alpha-methyl-L-serine; SITE 13: note = alpha-methyl-leucine; SITE 16: note = L-ornithine; SITE 17: note = Lysine is chemically modified through conjugation of the epsilon-amino gr) [Example 420]", "Relative cAMP EC50 (nM)": 0.205}
{"Binder": "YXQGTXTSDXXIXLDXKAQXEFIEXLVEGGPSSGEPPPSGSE (non-natural residues; lipidated Lys; C-terminal amide; synthetic construct; SITE 2: note = 2-Aminoisobutyric Acid; SITE 6: note = alpha-methyl-2-fluoro-L-phenylalanine; SITE 10: note = 3-(4-Pyridyl)-L-alanine; SITE 11: note = alpha-methyl-L-serine; SITE 13: note = alpha-methyl-leucine; SITE 16: note = L-ornithine; SITE 17: note = Lysine is chemically mo) [Example 1163]", "Relative cAMP EC50 (nM)": 0.449}
{"Binder": "YXQGTFTSDXSKXLDKKAQXAFIEYLIAXGESSGEPPPSGS (synthetic construct; SITE 2: note = 2-Aminoisobutyric Acid; SITE 10: note = 3-(4-Pyridyl)-L-alanine; SITE 13: note = alpha-methyl-leucine; SITE 17: note = Lysine is chemically modified through conjugation of the epsilon-amino group of the Lysine side chain with (2-[2-(2-Amino-ethoxy)-ethoxy]-acetyl)) [Example 287]", "Relative cAMP EC50 (nM)": 4.25}
{"Binder": "YXQGTXTSDXSIXLDKKAQXAFIEYLQEGGPSSGEPPPSGSEE ((γGlu)2-C18 diacid on Lys; non-natural residues; amide; synthetic construct; SITE 2: note = 2-Aminoisobutyric Acid; SITE 6: note = alpha-methyl-2-fluoro-L-phenylalanine; SITE 10: note = 3-(4-Pyridyl)-L-alanine; SITE 13: note = alpha-methyl-leucine; SITE 17: note = Lysine is chemically modified through conjugation of the epsilon-amino group of the Lysine) [Example 634]", "Relative cAMP EC50 (nM)": 0.403}
{"Binder": "HXQGTXTSDYSILLDKKAAXAFIEYLIETGPSSGEPPPSEG (not fully specified; synthetic construct; SITE 2: note = 2-Aminoisobutyric Acid; SITE 6: note = alpha-methyl-2-fluoro-L-phenylalanine; SITE 17: note = Lysine is chemically modified through conjugation of the epsilon-amino group of the Lysine side chain with (2-[2-(2-Amino-ethoxy)-ethoxy]-acetyl)-(gamma-Glu)-CO-(CH2) 18-) [Example 290]", "Relative cAMP EC50 (nM)": 0.34}

Record Relative cAMP EC50 per entry; entries follow.
1. YXQGTFTSDFSQXLDKKAQXAFIEYLLAGGPSSGAPPPEGS (synthetic construct; SITE 2: note = 2-Aminoisobutyric Acid; SITE 13: note = alpha-methyl-leucine; SITE 17: note = Lysine is chemically modified through conjugation of the epsilon-amino group of the Lysine side chain with (2-[2-(2-Amino-ethoxy)-ethoxy]-acetyl)-(gamma-Glu)-CO-(CH2) 16-CO2H; SITE 20: n) [Example 772]
2. YXQGTFTSDFSKXLDKKAQXAFIEYLLEGGPSSGEPPPGEGX (synthetic construct; SITE 2: note = 2-Aminoisobutyric Acid; SITE 13: note = alpha-methyl-leucine; SITE 17: note = Lysine is chemically modified through conjugation of the epsilon-amino group of the Lysine side chain with (2-[2-(2-Amino-ethoxy)-ethoxy]-acetyl)-(gamma-Glu)-CO-(CH2) 18-CO2H; SITE 20: n) [Example 54]

A.
1: 1.38; 2: 3.95
